- Subject of test: T1, His-tagged PD-L1 protein (human, UniProt Q9NZQ7 19-238)
- T1 construct: also called His-tagged antigen PD-L1 protein; human PD-L1; not shown: His tag
- Protocol text: SPR, Biacore T200, multi-cycle; Fab captured on chip, His-tagged PD-L1 as analyte
Observation type: koff (s⁻¹)
Hi! Could you send only the number? It should be in s⁻¹, unit omitted.

Worked set:
# Binder, Observation type, Unit symbol, Number
rows = [
    ("AS01978 (humanized Fab) (Fab, V domains shown, Purified humanized Fab) VH: EVQLVQSGAEVKKPGESLKISCKGSGYSFTSYSINWVRQAPGKGLEWMGYFYVGNGYTDYNEKFKGRVTITTDESTSTAYMELSSLRSEDTAVYYCARGGLPYYFDYWGQGTLVTVSS VL: DIQLTQSPSSLSASVGDRVTITCKTSQDVNTAVAWYQQKPDQSPKLLIKWASTRHTGVPSRFSGSGSGTDFTLTISSLQPEDFATYYCQQHYNTPLTFGGGTKLEIK", "koff", "s⁻¹", 0.00045),
    ("AS01979 (humanized Fab) (Fab, V domains shown, Purified humanized Fab) VH: EVQLVQSGAEVKKPGESLKISCKGSGYSFTSYSINWVRQAPGKGLEWMGYFYVGNGYTDYNEKFKGRVTMTRNTSISTAYMELSSLRSEDTAVYYCARGGLPYYFDYWGQGTLVTVSS VL: DIQMTQSPSSVSASVGDRVTITCKTSQDVNTAVAWYQQKPGQPPKLLIYWASTRHTGVPDRFSGSGSGTDFTLTISSLQAEDVAVYYCQQHYNTPLTFGGGTKLEIK", "koff", "s⁻¹", 0.00019),
    ("AS01807 (humanized Fab) (Fab, V domains shown, Purified humanized Fab) VH: QVQLVQSGSELKKPGASVKVSCKASGYTFTSYSINWVRQAPGKGLEWMGYFYVGNGYTDYNEKFKGRVTITRDTSASTAYMELSSLRSEDTAVYYCARGGLPYYFDYWGQGTLVTVSS VL: DIQMTQSPSSVSASVGDRVTITCKTSQDVNTAVAWYQQKPDQSPKLLIKWASTRHTGVPSRFSGSGSGTDFTLTISSLQPEDFATYYCQQHYNTPLTFGGGTKLEIK", "koff", "s⁻¹", 0.00035),
]

Report koff for AS01789 (humanized Fab) (Fab, V domains shown, Purified humanized Fab) VH: EVQLVQSGAEVKKPGESLKISCKGSGYSFTSYSINWVRQAPGQALEWMGYFYVGNGYTDYNEKFKGRVTITRDTSASTAYMELSSLRSEDTAVYYCARGDLPFYFDYWGDGILVTVAS VL: DIVMTQSPDSLAVSLGERATINCKTSQDVNTAVAWYQQKPGQPPKLLIYWASTRHTGVPDRFSGSGSGTDFTLKISRVEAEDVGVYYCQQHYNTPLTFGGGTKLEIK please. 0.00036

Report koff for AS02013 (humanized Fab) (Fab, V domains shown, Purified humanized Fab) VH: EVQLVQSGAEVKKPGESLKISCKGSGYSFTSYSINWVRQAPGKGLEWMGYFYVGNGYTDYNEKFKGRVTMTRNTSISTAYMELSSLRSEDTAVYYCARGGLPYYFDYWGQGTLVTVSS VL: DIQLTQSPSSLSASVGDRVTITCKTSQDVNTAVAWYQQKPGQAPRLLIYWASTRHTGVPSRFSGSGSGTDFTLTISSLQPEDFATYYCQQHYNTPLTFGGGTKLEIK please. 0.0002

Report koff for AS01825 (humanized Fab) (Fab, V domains shown, Purified humanized Fab) VH: QMQLVQSGAEVKKTGSSVKVSCKASGYTFTSYSINWVRQMPGKGLEWMGYFYVGNGYTDYNEKFKGRVTITADESTSTAYMELSSLRSEDTAVYYCARGGLPYYFDYWGQGTLVTVSS VL: DIQLTQSPSFLSASVGDRVTITCKTSQDVNTAVAWYQQKPGKAPKLLIYWASTRHTGVPSRFSGSGSGTDFTLTISSLQPEDVATYYCQQHYNTPLTFGGGTKLEIK please. 0.00039

Report koff for AS01790 (humanized Fab) (Fab, V domains shown, Purified humanized Fab derived from PDL1#10 (pFASEBA vector, E. coli)) VH: EVQLVQSGAEVKKPGESLKISCKGSGYSFTSYSINWVRQMPGKGLEWMGYFYVGNGYTDYNEKFKGRVTMTRNTSISTAYMELSSLRSEDTAVYYCARGGLPYYFDYWGQGTLVTVSS VL: DIQMTQSPSTLSASVGDRVTITCKTSQDVNTAVAWYQQKPGKAPKLLIYWASTRHTGVPSRFSGSGSGTEFTLTISSLQPEDFATYYCQQHYNTPLTFGGGTKLEIK please. 0.00017

Report koff for AS02002 (humanized Fab) (Fab, V domains shown, Purified humanized Fab) VH: QMQLVQSGAEVKKTGSSVKVSCKASGYTFTSYSINWVRQARGQRLEWIGYFYVGNGYTDYNEKFKGRVTITADESTSTAYMELSSLRSEDTAVYYCARGGLPYYFDYWGQGTLVTVSS VL: DIQMTQSPSSLSASVGDRVTITCKTSQDVNTAVAWYQQKPDQSPKLLIKWASTRHTGIPARFSGSGSGTEFTLTISSLQSEDFAVYYCQQHYNTPLTFGGGTKLEIK please. 0.00042

Source listed as patent US20200190197A1.
